The reported numbers originate from the RNAGym collection of RNA variant scans (doi:10.1021/acssynbio.7b00057).

B1: Pistol ribozyme (parent)
chain: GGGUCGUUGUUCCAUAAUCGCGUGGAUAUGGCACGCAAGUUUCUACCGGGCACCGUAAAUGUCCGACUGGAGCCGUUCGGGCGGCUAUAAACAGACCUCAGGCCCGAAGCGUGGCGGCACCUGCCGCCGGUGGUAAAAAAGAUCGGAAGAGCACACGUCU

variants of: B1; experiment: aptazyme ON/OFF ratio, guanine; higher = stronger switching; co-transcriptional cleavage with and without guanine
readoutLabel: aptazyme ON/OFF ratio
Answers are plain numbers.

Known results for variants:
| changes | aptazyme ON/OFF ratio |
| --- | --- |
| U7A U10G U11G C12U C13U | 1.2 |
| U7G U8C G9C U11A C12A C13G | 1.14 |

Challenge: For the variant U7C U8G U10A U11G C12G C13A , report aptazyme ON/OFF ratio.
Response given: 1.11
